assay: Single dose PK in healthy subjects (Cohorts 1, 2, S1 and S2), plasma; format: in vivo, human; conditions: human, plasma, intravenous, 56 mg; 6 hr; read-out: Plasma concentration, Maximum
Property name: concentration at 6 h (ng/mL)
Write down the numeric answer in ng/mL and omit the unit.

In: Give the reported value of concentration at 6 h for this record: COC(=O)N1CCC[C@H](NS(C)(=O)=O)[C@@H]1CO[C@H]1CC[C@@H](c2ccccc2)CC1 [Compound A]
Out: 119

====

assay: Single dose PK in healthy subjects (Cohorts 1, 2, S1 and S2), plasma; type: in vivo, human; conditions: human, plasma, intravenous, 14 mg; 8 hr; read-out: Plasma concentration, Maximum
Property name: concentration at 8 h
Be sure to follow the number with its unit.

In: Give the reported value of concentration at 8 h for this record: "COC(=O)N1CCC[C@H](NS(C)(=O)=O)[C@@H]1CO[C@H]1CC[C@@H](c2ccccc2)CC1"
Out: 34.4 ng/mL

====

experiment: Single dose PK in healthy subjects (Cohorts 1, 2, S1 and S2), plasma; type: in vivo, human; conditions: human, plasma, intravenous, 134.4 mg; 1 hr; read-out: Plasma concentration, Mean
Property name: concentration at 1 h (ng/mL)
Write down the numeric answer in ng/mL and omit the unit.

In: Give the reported value of concentration at 1 h for this record: "COC(=O)N1CCC[C@H](NS(C)(=O)=O)[C@@H]1CO[C@H]1CC[C@@H](c2ccccc2)CC1"
Out: 204

====

assay: Single dose PK in healthy subjects (Cohorts 1, 2, S1 and S2), plasma; format: in vivo, human; conditions: human, plasma, intravenous, 56 mg; 0.5 hr; read-out: Plasma concentration, Q1
Property name: concentration at 0.5 h (ng/mL)
Write down the numeric answer in ng/mL and omit the unit.

In: Give the reported value of concentration at 0.5 h for this record: COC(=O)N1CCC[C@H](NS(C)(=O)=O)[C@@H]1CO[C@H]1CC[C@@H](c2ccccc2)CC1 [Compound A]
Out: 65

====

assay: Single dose PK in healthy subjects (Cohorts 1, 2, S1 and S2), plasma; assay type: in vivo, human; conditions: human, plasma, iv, 240 mg, 240 mg single IV infusion; 4 hr After End of Infusions; read-out: Plasma Concentration of Cmpd A, Q1
Property name: concentration at 4 h after end of infusion (ng/mL)
Write down the numeric answer in ng/mL and omit the unit.

In: Give the reported value of concentration at 4 h after end of infusion for this record: COC(=O)N1CCC[C@H](NS(C)(=O)=O)[C@@H]1CO[C@H]1CC[C@@H](c2ccccc2)CC1 [Compound A]
Out: 53.1

====

test: Single dose PK in healthy subjects (Cohorts 1, 2, S1 and S2), plasma; assay type: in vivo, human; conditions: human, plasma, iv, 240 mg, 240 mg single IV infusion, healthy subjects; read-out: AUClast Mean
Property name: AUC(0-t)

In: Give the reported value of AUC(0-t) for this record: COC(=O)N1CCC[C@H](NS(C)(=O)=O)[C@@H]1CO[C@H]1CC[C@@H](c2ccccc2)CC1 [Compound A]
Out: 4580 ng·h/mL

====

assay: Single dose PK in healthy subjects (Cohorts 1, 2, S1 and S2), plasma; format: in vivo, human; settings: human, plasma, iv, 56 mg, 56 mg single IV infusion, healthy subjects; read-out: AUC24 Geo Mean
Excerpt: […]
Property name: AUC (ng·h/mL)
Write down the numeric answer in ng·h/mL and omit the unit.

In: Give the reported value of AUC for this record: COC(=O)N1CCC[C@H](NS(C)(=O)=O)[C@@H]1CO[C@H]1CC[C@@H](c2ccccc2)CC1 [Compound A]
Out: 1060

====

assay: Single dose PK in healthy subjects (Cohorts 1, 2, S1 and S2), plasma; assay type: in vivo, human; conditions: human, plasma, iv, 112 mg, 112 mg single IV infusion, healthy subjects; read-out: Vz Mean
Property name: Vd (L)
Write down the numeric answer in L and omit the unit.

In: Give the reported value of Vd for this record: COC(=O)N1CCC[C@H](NS(C)(=O)=O)[C@@H]1CO[C@H]1CC[C@@H](c2ccccc2)CC1 [Compound A]
Out: 289

====

assay: Multiple-dose PK of intravenous Compound A in patients with NT1 (Cohorts B1, B2), plasma; format: in vivo, human; details: human, plasma, intravenous; 44 mg; Day 7
Property name: Tmax
Be sure to follow the number with its unit.

In: Give the reported value of Tmax for this record: "COC(=O)N1CCC[C@H](NS(C)(=O)=O)[C@@H]1CO[C@H]1CC[C@@H](c2ccccc2)CC1"
Out: 4.93 h

====

experiment: Single dose PK in healthy subjects (Cohorts 1, 2, S1 and S2), plasma; format: in vivo, human; settings: human, plasma, iv, 56 mg, 56 mg single IV infusion, healthy subjects; read-out: AUCinf Geo Mean
Property name: AUC(0-inf) (ng·h/mL)
Write down the numeric answer in ng·h/mL and omit the unit.

In: Give the reported value of AUC(0-inf) for this record: "COC(=O)N1CCC[C@H](NS(C)(=O)=O)[C@@H]1CO[C@H]1CC[C@@H](c2ccccc2)CC1"
Out: 1060

====

assay: Single dose PK in healthy subjects (Cohorts 1, 2, S1 and S2), plasma; format: in vivo, human; conditions: human, plasma, iv, 240 mg, 240 mg single IV infusion; 1.5 hr; read-out: Plasma Concentration of Cmpd A, Maximum
Property name: concentration at 1.5 h
Be sure to follow the number with its unit.

In: Give the reported value of concentration at 1.5 h for this record: "COC(=O)N1CCC[C@H](NS(C)(=O)=O)[C@@H]1CO[C@H]1CC[C@@H](c2ccccc2)CC1"
Out: 480 ng/mL

====

test: Single dose PK in healthy subjects (Cohorts 1, 2, S1 and S2), plasma; type: in vivo, human; details: human, plasma, iv, 7 mg, 7 mg single IV infusion, healthy subjects; read-out: CL Mean (converted)
Property name: clearance (mL/min)
Write down the numeric answer in mL/min and omit the unit.

In: Give the reported value of clearance for this record: "COC(=O)N1CCC[C@H](NS(C)(=O)=O)[C@@H]1CO[C@H]1CC[C@@H](c2ccccc2)CC1"
Out: 833

====

assay: Single dose PK in healthy subjects (Cohorts 1, 2, S1 and S2), plasma; type: in vivo, human; conditions: human, plasma, intravenous, 112 mg; 1.5 hr; read-out: Plasma concentration, Q3
Property name: concentration at 1.5 h (ng/mL)
Write down the numeric answer in ng/mL and omit the unit.

In: Give the reported value of concentration at 1.5 h for this record: "COC(=O)N1CCC[C@H](NS(C)(=O)=O)[C@@H]1CO[C@H]1CC[C@@H](c2ccccc2)CC1"
Out: 213

====

assay: Single dose PK in patients with narcolepsy (Cohorts 5, 6 and 7), plasma; type: in vivo, human; conditions: human, plasma, iv, 11.2 mg; 1 hr; NT1, single 9 h IV infusion; read-out: Plasma concentration, Mean
Property name: concentration at 1 h (ng/mL)
Write down the numeric answer in ng/mL and omit the unit.

In: Give the reported value of concentration at 1 h for this record: "COC(=O)N1CCC[C@H](NS(C)(=O)=O)[C@@H]1CO[C@H]1CC[C@@H](c2ccccc2)CC1"
Out: 14.4

====

assay: Single dose PK in healthy subjects (Cohorts 1, 2, S1 and S2), plasma; type: in vivo, human; conditions: human, plasma, intravenous, 56 mg; 6 hr; read-out: Plasma concentration, Q1
Property name: concentration at 6 h (ng/mL)
Write down the numeric answer in ng/mL and omit the unit.

In: Give the reported value of concentration at 6 h for this record: COC(=O)N1CCC[C@H](NS(C)(=O)=O)[C@@H]1CO[C@H]1CC[C@@H](c2ccccc2)CC1 [Compound A]
Out: 73.8

====

assay: Single dose PK in healthy subjects (Cohorts 1, 2, S1 and S2), plasma; format: in vivo, human; conditions: human, plasma, intravenous, 14 mg; 2 hr; read-out: Plasma concentration, Maximum
Property name: concentration at 2 h (ng/mL)
Write down the numeric answer in ng/mL and omit the unit.

In: Give the reported value of concentration at 2 h for this record: COC(=O)N1CCC[C@H](NS(C)(=O)=O)[C@@H]1CO[C@H]1CC[C@@H](c2ccccc2)CC1 [Compound A]
Out: 37.8

====

test: Single dose PK in healthy subjects (Cohorts 1, 2, S1 and S2), plasma; format: in vivo, human; conditions: human, plasma, intravenous, 28 mg; 3 hr; read-out: Plasma concentration, Minimum
Property name: concentration at 3 hr (ng/mL)
Write down the numeric answer in ng/mL and omit the unit.

In: Give the reported value of concentration at 3 hr for this record: COC(=O)N1CCC[C@H](NS(C)(=O)=O)[C@@H]1CO[C@H]1CC[C@@H](c2ccccc2)CC1 [Compound A]
Out: 35.6

====

assay: Single dose PK in healthy subjects (Cohorts 1, 2, S1 and S2), plasma; type: in vivo, human; conditions: human, plasma, iv, 240 mg, 240 mg single IV infusion; 3 hr After End of Infusions; read-out: Plasma Concentration of Cmpd A, Maximum
Property name: concentration at 3 h after end of infusion (ng/mL)
Write down the numeric answer in ng/mL and omit the unit.

In: Give the reported value of concentration at 3 h after end of infusion for this record: COC(=O)N1CCC[C@H](NS(C)(=O)=O)[C@@H]1CO[C@H]1CC[C@@H](c2ccccc2)CC1 [Compound A]
Out: 91

This collection of values is drawn from patent US20220339143A1.
